System: M14
run-description: NCI tumour cell line growth inhibition, 48 h
The source made the active and inactive calls. No stated cut-off is given here; in the data, active = GI50 up to about 1.1 µM and inactive = higher.
Quick reference for GI50 among some compounds

# annotated cases, reported GI50 shown
compound	reported-measurement
c1cncc(C(Nc2cccc3cccnc23)Nc2cccc3cccnc23)c1	> 100 µM (inactive)
Cc1c(-c2ccccc2)c(-c2ccc(OCCN(C)C)cc2)n2ccccc12	1.79 µM (inactive)
COc1ccc(N2C(=O)C3c4[nH]c5ccc(OC)cc5c4C4CCC(c5ccccc5)CC4C3C2=O)cc1 (stereo not given)	14.8 µM (inactive)
O=c1c(C(c2ccc3ccccc3c2)c2c(O)oc3cc(O)ccc3c2=O)c(O)oc2cc(O)ccc12	> 100 µM (inactive)

// next item, GI50 requested
Query: Given the compound C=C(CO)CC(/C=C(\C)CC/C=C(\C)CCl)OC(C)=O (stereo not given) , what is its reported GI50?
Result: > 100 µM (inactive)
